These data points were gathered from patent US9376420B2.

Examples of compounds with documented Emax follow.
target: human LXRβ (Homo sapiens); construct: expressed in transfected cells; host or cells: HEK293 cells (ATCC CRL-1573), transient transfection with pFA-hLXRβ/GAL4 and pUAS; experiment: Assay for Transcriptional Activity of LXRβ (GAL4-hLXRβ LBD luciferase reporter, transient transfection); format: cell-based; settings: fold value in comparison with the control (DMSO-treated group); HEK293 cells transfected with pFA-hLXRβ/GAL4 and pUAS; 24 hours
The reply should be a number in fold, with the unit left off.

# compound, scale unit, Emax
measured = [
    ("O=C(O)C(F)(F)F.OC(C1=NN(c2ccccc2Cl)C(c2cccc(C3=CCNCC3)c2)C1)(C(F)(F)F)C(F)(F)F (stereo not shown)", "fold", 137),
    ("CS(=O)(=O)c1ccc(-c2ccc(C3CC(C(O)(C(F)(F)F)C(F)(F)F)=NN3c3ccccc3Cl)cc2)c(C(F)(F)F)c1 (stereo not shown)", "fold", 32),
    ("CNCCCS(=O)(=O)c1cccc(-c2cccc(N3N=C(C(F)(F)C(F)(F)F)CC3c3ccc(F)cc3F)c2)c1.Cl (stereo not shown)", "fold", 9),
    ("CSc1ccc(-c2ccc(C3CC(C(O)(C(F)(F)F)C(F)(F)F)=NN3c3ccccc3Cl)s2)cn1 (stereo not shown)", "fold", 100),
    ("CS(=O)(=O)c1cccc(-c2ccnc(C3CC(C(F)(F)C(F)(F)F)=NN3c3ccc(F)cc3F)c2)c1 (stereo not shown)", "fold", 57),
    ("CC(C)C(=O)N1CC=C(c2ccc(C3CC(C(O)(C(F)(F)F)C(F)(F)F)=NN3c3ccc(F)cc3F)cc2)CC1 (stereo not shown)", "fold", 23),
]

With those in mind, consider the next compound.
Emax for CC(=O)c1ccccc1-c1ccc(C2CC(C(O)(C(F)(F)F)C(F)(F)F)=NN2c2ccccc2Cl)cc1 (stereo not shown) ?
47

----------
target: human LXRβ (Homo sapiens); construct: expressed in transfected cells; host or cells: HEK293 cells (ATCC CRL-1573), transient transfection with pFA-hLXRβ/GAL4 and pUAS; assay: Assay for Transcriptional Activity of LXRβ (GAL4-hLXRβ LBD luciferase reporter, transient transfection); type: cell-based; details: fold value in comparison with the control (DMSO-treated group); HEK293 cells transfected with pFA-hLXRβ/GAL4 and pUAS; 24 hours
Definition: the class of an entry is the range in lower segment: < 50 fold; middle segment: ≥ 50 fold and < 60 fold; upper segment: ≥ 60 fold that contains its Emax.

# compound, assigned category
records = [
    ("CCOC(=O)c1cncc(-c2ccc(C3CC(C(O)(C(F)(F)F)C(F)(F)F)=NN3c3ccc(F)cc3F)cc2)c1 (stereo not shown) [Example 378]", "lower segment"),
    ("CN(C)S(=O)(=O)N1CCN(c2ccc(C3CC(C(O)(C(F)(F)F)C(F)(F)F)=NN3c3ccccc3Cl)cc2)CC1 (stereo not shown) [Example 316]", "lower segment"),
    ("O=S(=O)(N1CC=C(c2ccc(C3CC(C(O)(C(F)(F)F)C(F)(F)F)=NN3c3ccccc3Cl)cc2)CC1)N1CCCC1 (stereo not shown) [Example 308]", "lower segment"),
]

Which category does the recorded Emax put CS(=O)(=O)c1ccc(-c2cccc(C3CC(C(F)(F)C(F)(F)F)=NN3c3ccccc3Cl)c2)cc1 (stereo not shown) [Example 106] in?
upper segment

Would you kindly repeat that for COc1ncc(-c2cccc(C3CC(C(F)(F)C(F)(F)F)=NN3c3ccc(F)cc3F)c2)cc1CO (stereo not shown) [Example 90] ?
lower segment

Same thing, different compound: OC(C1=NN(c2ccccc2Cl)C(c2ccc(-c3cnc(Cl)nc3)cc2)C1)(C(F)(F)F)C(F)(F)F (stereo not shown) [Example 281]
upper segment

----------
Target: human LXRβ (Homo sapiens, UniProt P55055)
Sequence (P55055 222-460 limits assumed): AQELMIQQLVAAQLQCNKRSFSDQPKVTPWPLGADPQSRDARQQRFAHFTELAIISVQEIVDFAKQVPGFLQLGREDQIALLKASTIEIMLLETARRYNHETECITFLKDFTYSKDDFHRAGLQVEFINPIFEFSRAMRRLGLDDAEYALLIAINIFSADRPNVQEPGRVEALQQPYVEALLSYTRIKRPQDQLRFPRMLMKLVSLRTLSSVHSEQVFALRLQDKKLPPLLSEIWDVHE
Assay: Assay for Transcriptional Activity of LXRβ (GAL4-hLXRβ LBD luciferase reporter, transient transfection)
Details: increase of transcriptional activity of LXRβ; HEK293 cells transfected with pFA-hLXRβ/GAL4 and pUAS; 24 hours; average of three independent tests
List of EC50 values.
Please give a number only; it is taken to be in nM.

// returns reported EC50 for input Cc1ccccc1-c1ccc(C2CC(C(O)(C(F)(F)F)C(F)(F)F)=NN2c2ccccc2Cl)c(F)c1 (stereo not drawn)
780

Would you kindly repeat that for CN(C)C(=O)N1CC=C(c2ccc(C3CC(C(O)(C(F)(F)F)C(F)(F)F)=NN3c3ccc(F)cc3F)cc2)CC1 (stereo not drawn) ?
1170

// same read-out, input: CN(CCCS(=O)(=O)c1cccc(-c2ccc(C3CC(C(O)(C(F)(F)F)C(F)(F)F)=NN3c3ccc(F)cc3F)cc2)c1)C(=O)OC(C)(C)C (stereo not drawn)
0.4

----------
Biological target: human LXRβ (Homo sapiens, UniProt P55055)
Construct: expressed in transfected cells; host or cells: HEK293 cells (ATCC CRL-1573), transient transfection with pFA-hLXRβ/GAL4 and pUAS
Sequence (P55055 222-460 limits assumed): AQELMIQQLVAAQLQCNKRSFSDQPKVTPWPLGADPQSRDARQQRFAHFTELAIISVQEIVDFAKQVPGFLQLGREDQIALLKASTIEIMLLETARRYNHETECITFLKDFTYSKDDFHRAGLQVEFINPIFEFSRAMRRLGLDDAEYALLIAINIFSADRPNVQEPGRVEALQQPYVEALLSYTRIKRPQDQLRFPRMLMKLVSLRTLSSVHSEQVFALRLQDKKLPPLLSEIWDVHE
Assay: Assay for Transcriptional Activity of LXRβ (GAL4-hLXRβ LBD luciferase reporter, transient transfection)
Type: cell-based
Settings: fold value in comparison with the control (DMSO-treated group); HEK293 cells transfected with pFA-hLXRβ/GAL4 and pUAS; 24 hours
Emax values for the molecules below.
Write the answer as a number in fold, unit excluded.

Completed entries (count: 6):
# molecule, Emax / fold
measured = [
    ("OC(C1=NN(c2ccccc2Cl)C(c2ccc(-c3ccc(F)cc3)cc2F)C1)(C(F)(F)F)C(F)(F)F (centres unmarked)", 53),
    ("Fc1cncc(-c2cccc(C3CC(C(F)(F)C(F)(F)F)=NN3c3ccc(F)cc3F)c2)c1 (centres unmarked)", 29),
    ("CC(C)(C)OC(=O)N1CCN(c2ccc(C3CC(C(O)(C(F)(F)F)C(F)(F)F)=NN3c3ccc(F)cc3F)cc2)CC1 (centres unmarked)", 15),
    ("CN(C)S(=O)(=O)c1cccc(-c2cccc(N3N=C(C(F)(F)C(F)(F)F)CC3c3ccc(F)cc3F)c2)n1 (centres unmarked)", 20),
    ("CS(=O)(=O)c1cccc(-c2cncc(C3CC(C(F)(F)C(F)(F)F)=NN3c3ccc(F)cc3F)c2)c1 (centres unmarked)", 157),
    ("COc1ccc(-c2ccc(C3CC(C(O)(C(F)(F)F)C(F)(F)F)=NN3c3ccccc3Cl)cc2)cn1 (centres unmarked)", 47),
]

Now consider a different molecule.
Suppose we examine the molecule CS(=O)(=O)c1ccc(-c2ccc(C3CC(C(O)(C(F)(F)F)C(F)(F)F)=NN3c3ccc(F)cc3F)cc2)cc1C#N (centres unmarked) ; what Emax value has been reported?
55

----------
biological target: human LXRβ (Homo sapiens); construct: expressed in transfected cells; host or cells: HEK293 cells (ATCC CRL-1573), transient transfection with pFA-hLXRβ/GAL4 and pUAS; experiment: Assay for Transcriptional Activity of LXRβ (GAL4-hLXRβ LBD luciferase reporter, transient transfection); assay type: cell-based; settings: fold value in comparison with the control (DMSO-treated group); HEK293 cells transfected with pFA-hLXRβ/GAL4 and pUAS; 24 hours
Classification scheme (Emax): bucket 1: < 40 fold; bucket 2: ≥ 40 fold and < 60 fold; bucket 3: ≥ 60 fold

Answered cases to consult:
# compound, assigned category
measured = [
    ("CS(=O)(=O)c1ccc(-c2cccc(C3CC(C(F)(F)C(F)(F)F)=NN3c3ccc(F)cc3F)c2)nc1 (centres unmarked) [Example 81]", "bucket 3"),
    ("CS(=O)(=O)N1CCCN(c2ccc(C3CC(C(O)(C(F)(F)F)C(F)(F)F)=NN3c3ccccc3Cl)cc2)CC1 (centres unmarked) [Example 322]", "bucket 3"),
    ("N#Cc1ccc(-c2cccc(C3CC(C(F)(F)C(F)(F)F)=NN3c3ccc(F)cc3F)c2)cn1 (centres unmarked) [Example 78]", "bucket 1"),
    ("CS(=O)(=O)N1CCN(c2ccc(C3CC(C(O)(C(F)(F)F)C(F)(F)F)=NN3c3ccccc3Cl)cc2)CC1 (centres unmarked) [Example 312]", "bucket 2"),
    ("CSc1cccc(-c2ccnc(C3CC(C(F)(F)C(F)(F)F)=NN3c3ccc(F)cc3F)c2)c1 (centres unmarked) [Example 172]", "bucket 3"),
]

Exercise: read the entry OCc1ccc(-c2cccc(C3CC(C(F)(F)C(F)(F)F)=NN3c3ccc(F)cc3F)c2)nc1 (centres unmarked) [Example 91] and state which class it falls under.
bucket 2

Another compound to check: Cc1ccc(-c2ccc(C3CC(C(O)(C(F)(F)F)C(F)(F)F)=NN3c3ccccc3Cl)cc2)cc1 (centres unmarked) [Example 250]
bucket 3

And for CSc1cccc(-c2ccc(C3CC(C(O)(C(F)(F)F)C(F)(F)F)=NN3c3ccc(F)cc3F)cc2)c1 (centres unmarked) [Example 369] ?
bucket 1

Next record, please: OC(C1=NN(c2ccccc2Cl)C(c2ccc(-c3ccc(C(F)(F)F)nc3)cc2)C1)(C(F)(F)F)C(F)(F)F (centres unmarked) [Example 272]
bucket 1

And what about the compound Fc1ccc(N2N=C(C(F)(F)C(F)(F)F)CC2c2cccc(-c3ccccc3)c2)c(F)c1 (centres unmarked) [Example 94] ?
bucket 1
